The reported numbers originate from ChEMBL document CHEMBL1140090.

- ASSAY_TEXT: in vitro
- DETAILS: human, Caco-2
VALUE_TYPE: Papp A→B (nm/s)

I. C=CC[C@H]1C(=O)N([C@@H](Cc2ccc3ccccc3c2)C(=O)NC)CCN1C(=O)[C@H](N)Cc1ccc(F)cc1
II. CNC(=O)[C@H](Cc1ccc2ccccc2c1)N1CCN(C(=O)[C@H](N)Cc2ccc(F)cc2)[C@@H](CCNC(=N)N)C1=O
// query Form: Entry with minimum Papp A→B (choose one): I / II Label of pick, please.
// result II
